experiment_summary: NCI Yeast Anticancer Drug Screen. Data for the mec2-1 strain (AID 157)
protocol_conditions: S. cerevisiae mec2-1 strain, at 50.0 µM
About 79,000 compounds went through this panel and 15% of them were active in at least one assay; those are over-represented in the sample as a whole. The source made the active and inactive calls. Rule as the data show it: active = growth inhibition above about 70%; inactive = the rest.
Pick from T (active), F (inactive) when you respond.

CC(C)(C)OC(=O)N(CCCCNC(=O)c1ccccc1)CCCNC(=O)c1ccccc1 ... F
CC1(C=O)CCCC2(C)[C@@H]1CCC13CC(CC[C@H]12)C(C(=O)O)C3 (stereo not given in full) ... F
CC(=O)CCCC(=O)O ... F

Which outcome did this test record for the compound NC(=O)CNc1ccc(CC2CCOC2=O)cc1 (stereo not given) ?
F

Which outcome did this test record for the compound COc1ccc(N2C(=O)C3c4[nH]c5ccccc5c4C4CCCCCCCCCCC4C3C2=O)cc1 (stereo not given) ?
F

Which outcome did this test record for the compound C=C(C)C(O)CC(C)C (stereo not given) ?
F

Which outcome did this test record for the compound "CCOC(=O)/C(F)=C/c1ccc(C)cc1" ?
F

Which outcome did this test record for the compound "Nc1cccc2c1-c1ccc([N+](=O)[O-])cc1C2=O" ?
F

Which outcome did this test record for the compound "C[N+](C)(CCO)CCN1c2ccccc2Sc2ccccc21" ?
F

Which outcome did this test record for the compound C=CCNC(=O)N(CCC)CCCCC(NC(C)=O)C(=O)NCc1ccccc1 (stereo not given) ?
F

Which outcome did this test record for the compound CCC(Cl)COP(=O)(CC(Cl)CC)OC(C)P(=O)(OCC(Cl)CC)OCC(Cl)CC (stereo not given) ?
T

Which outcome did this test record for the compound "O=C(O)c1cc(=O)c2c([nH]c3ccccc32)s1" ?
F

Which outcome did this test record for the compound "COc1ccc2c(c1OC)C(=O)O[C@@H]2[C@H]1c2c(cc3c(c2OC)OCO3)CCN1C" ?
F

Which outcome did this test record for the compound "CCOC(=O)c1ccc(Cl)cc1" ?
F

Which outcome did this test record for the compound "Cc1cc(N(CCC#N)CCC#N)ccc1/C=C(\NC(=O)/C=C/c1ccccc1)C(=O)Nc1ccc(Cl)cc1" ?
F

Which outcome did this test record for the compound CC(SC(=S)N1CCOCC1)c1cc2oc(=O)n(C)c2cc1Cl (stereo not given) ?
F

Which outcome did this test record for the compound "CC1=C/C(=N\NC(=O)c2ccc[n+](C)c2)CC(C)(C)C1" ?
F

Which outcome did this test record for the compound "Cc1ccc(N=C2OC(=O)c3ccccc32)cc1" ?
F

Which outcome did this test record for the compound "COc1ccc(-c2cc(=O)c3c(O)cc(O)cc3o2)cc1Oc1ccc(-c2cc(=O)c3c(O)cc(O)cc3o2)cc1" ?
F

Which outcome did this test record for the compound "COc1ccc2c(c1)CCC1=C2CCC2=CC(=O)CC[C@@]21C" ?
F

Which outcome did this test record for the compound "CC(=O)COc1cccc2ccccc12" ?
F

Which outcome did this test record for the compound "C=C(Cl)C(=O)O" ?
F

Which outcome did this test record for the compound CC(C)Oc1c(O)c2c3c(oc(=O)n3C=CC2c2ccccc2)c1OC(C)C (stereo not given) ?
T
